Target: maize endosperm ADP-glucose pyrophosphorylase (AGPase) BT2/SH2, wild type small subunit BT2 complexed with wild type large subunit SH2 (Zea mays, UniProt P55241+Q947C0)
Sequence (Q947C0 1-475): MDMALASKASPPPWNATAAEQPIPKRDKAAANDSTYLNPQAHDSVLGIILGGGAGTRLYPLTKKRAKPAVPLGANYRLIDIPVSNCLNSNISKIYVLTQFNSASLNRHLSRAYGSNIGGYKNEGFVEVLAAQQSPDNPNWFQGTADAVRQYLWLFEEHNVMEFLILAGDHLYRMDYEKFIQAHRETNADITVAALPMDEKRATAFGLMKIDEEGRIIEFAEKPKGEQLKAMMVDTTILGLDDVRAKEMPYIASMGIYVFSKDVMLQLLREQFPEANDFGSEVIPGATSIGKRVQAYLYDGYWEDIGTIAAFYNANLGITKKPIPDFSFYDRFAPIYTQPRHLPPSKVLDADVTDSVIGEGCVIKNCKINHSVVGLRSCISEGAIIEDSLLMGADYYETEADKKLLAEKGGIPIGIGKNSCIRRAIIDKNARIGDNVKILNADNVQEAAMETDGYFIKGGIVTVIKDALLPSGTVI
Sequence (P55241 46-516): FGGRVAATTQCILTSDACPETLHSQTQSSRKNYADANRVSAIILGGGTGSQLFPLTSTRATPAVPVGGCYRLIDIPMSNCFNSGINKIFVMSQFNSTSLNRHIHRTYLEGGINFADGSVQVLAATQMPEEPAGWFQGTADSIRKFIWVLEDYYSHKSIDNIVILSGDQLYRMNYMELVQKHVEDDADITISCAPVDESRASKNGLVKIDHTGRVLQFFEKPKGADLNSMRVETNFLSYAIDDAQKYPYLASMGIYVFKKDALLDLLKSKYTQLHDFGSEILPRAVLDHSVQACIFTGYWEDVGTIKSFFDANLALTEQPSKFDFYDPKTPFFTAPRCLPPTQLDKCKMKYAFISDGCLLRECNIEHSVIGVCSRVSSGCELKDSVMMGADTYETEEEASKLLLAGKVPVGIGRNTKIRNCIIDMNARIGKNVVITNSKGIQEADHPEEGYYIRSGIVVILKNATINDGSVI
Assay: Kinetic and allosteric characterization of purified recombinant AGPase, forward direction (BT2/SH2)
Details: 1 mM ATP, 2 mM G-1-P, 2.5 mM 3-PGA, mean (95% confidence interval), read-out: Ki Pi
Description: The following steps were conducted at 4° C. The reaction was stopped by boiling for 2 min. […] NADH concentration was estimated by absorbance at 340 nm. All other values are expressed as mean±standard deviation.
observation_type: pKi
Hey, just a heads up that pKi is the negative log base 10 of the concentration in molar.

Identify measured pKi associated with O=P(O)(O)O [Pi, inorganic phosphate]
2.63
